assay: modulators of S6 phosphorylation in cells, primary screen, cell-based, A549, cytoblot, luminescence, serum-stimulated (AID 1158); conditions: A549 phospho-S6 cytoblot, 5 h, higher = more signal;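 also: serum-stimulated A549 lung adenocarcinoma cells; signal is phosphorylated S6 detected by cytoblot immunostaining with HRP secondary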
# maps each entry to its z-score
measuredAttribute: z-score

[[record]]
compound = "O=C1C[C@@H](O)[C@@H](O)[C@@H]2[C@@H]3C(=O)N(c4cccc(Oc5ccccc5)c4)C(=O)[C@@H]3CC[C@@H]12"
measuredattribute = "z-score"
result = -0.363

[[record]]
compound = "CO[C@@H]1COC(=O)CC=C[C@@H](C)[C@@H]2C=C[C@@H](O)[C@@H](COC(=O)CC=C[C@H]1C)O2"
measuredattribute = "z-score"
result = 0.805

[[record]]
compound = "CC(C)OC(=O)C=C1C[C@@H](c2ccc(C#N)cc2)O[C@@H](c2ccc(C#N)cc2)O1"
measuredattribute = "z-score"
result = -0.342

[[record]]
compound = "COCCOC(=O)N1C(=O)[C@@]2(c3cc(C#Cc4ccc(OC)cc4)ccc31)[C@H](c1ccc(O)cc1)N1[C@H](c3ccccc3)[C@H](c3ccccc3)OC(=O)[C@H]1[C@@H]2C(N)=O"
measuredattribute = "z-score"
result = -0.0604

[[record]]
compound = "O=C1O[C@@H](c2ccccc2)[C@@H](c2ccccc2)N2[C@@H](c3ccc(OCCO)cc3)[C@]3(C(=O)Nc4ccc(C#CCCO)cc43)[C@@H](C(=O)N3CCCCCCC3)[C@H]12"
measuredattribute = "z-score"
result = -0.178

[[record]]
compound = "CN1C(=O)[C@@]2(CCC(=O)OC(C)(C)C)N=C(c3ccc(OCCCO)cc3)O[C@H]2c2ccccc21"
measuredattribute = "z-score"
result = 1.09

[[record]]
compound = "O=C1c2ccccc2[C@@]2(Cc3ccccc3N(C3CC3)C2=O)[C@H](c2ccc(CO)cc2)N1Cc1ccccc1C(F)(F)F"
measuredattribute = "z-score"
result = 1.01

[[record]]
compound = "CCN1C(=O)[C@H]2[C@H]3[C@H](O)[C@H](O)CC(=NOC(C)CN4CCCCc5nc(C)c(C)cc54)[C@@H]3CC[C@H]2C1=O (stereo not given in full)"
measuredattribute = "z-score"
result = -0.518

[[record]]
compound = "CCOC(=O)[C@H](Cc1ccccc1)NC(=O)CCC1CC(OC(=O)NCc2ccc3c(c2)OCO3)CC2(CCCC(COC(=O)NCc3cccc(C(F)(F)F)c3)O2)O1 (stereo not given in full)"
measuredattribute = "z-score"
result = 2.74

[[record]]
compound = "CC(CCC(=O)OC[C@H]1O[C@H](C#Cc2ccccc2)C=C[C@@H]1Oc1ccc(C)cc1)=NOC[C@@H](O)[C@H]1O[C@@H]2OC(C)(C)O[C@@H]2[C@H]1O"
measuredattribute = "z-score"
result = 0.078

[[record]]
compound = "CCOC(=O)NN=C1C[C@@H](O)[C@@H](O)[C@@H]2[C@@H]3C(=O)N(C(C)(C)C)C(=O)[C@@H]3CC[C@@H]12"
measuredattribute = "z-score"
result = -0.12

[[record]]
compound = "CC(C)C[C@@H]1NC(=O)[C@H]2C[C@@H](C(=O)NCCCCCCN(C)C)[C@@H](c3cccc(OCCO)c3)N2C1=O"
measuredattribute = "z-score"
result = 0.0695

[[record]]
compound = "CCOC(=O)C[C@H]1[C@H](OC(=O)c2cc3ccccc3oc2=O)[C@@H](NC(=O)c2ccc3ccccc3n2)c2cc(OCCCO)ccc2N1C(=O)c1ccccc1"
measuredattribute = "z-score"
result = 0.63

[[record]]
compound = "O=C1[C@H]2[C@H]3[C@H](O)[C@H](O)CC(=NO[C@@H]4O[C@H](CO)[C@@H](O)[C@H](O)[C@H]4O)[C@H]3CC[C@H]2C(=O)N1C1CCCCC1"
measuredattribute = "z-score"
result = 0.561

[[record]]
compound = "O=C1[C@H]2[C@H]3[C@H](O)[C@H](O)CC(=NO[C@@H]4O[C@H](CO)[C@@H](O)[C@H](O)[C@H]4O)[C@@H]3CC[C@H]2C(=O)N1Cc1ccc2c(c1)OCO2"
measuredattribute = "z-score"
result = 0.117

[[record]]
compound = "COC(=O)[C@@]1(Cc2ccc(F)cc2)[C@@H]2C(=CC(=O)[C@H]2CC(=O)C(=O)N(C)C)CN1C(=O)c1ccccc1"
measuredattribute = "z-score"
result = 0.172

[[record]]
compound = "CC(C)=NOCc1cccc(-c2cc(-c3ccccc3)no2)c1"
measuredattribute = "z-score"
result = -0.947

[[record]]
compound = "CC(C)=CCCC(C)=CCON=C1[C@H]2CCn3c(=O)n(C)c(=O)n3[C@H]2[C@H](O)[C@@H]2O[C@H]12"
measuredattribute = "z-score"
result = -0.48

[[record]]
compound = "CCCCc1nc2c(c3c1C[C@H](C)OC3)CN(CCC(C)C)CC2"
measuredattribute = "z-score"
result = 0.171

[[record]]
compound = "COC(=O)C1(C)C=C2C(=C(c3ccccc3)C(=O)C2C)CN1 (stereo not given)"
measuredattribute = "z-score"
result = -0.387


Provenance of the data: PubChem BioAssay
